molecular target: 5-HT2A receptor (Homo sapiens (Human), UniProt P28223); assay: 5-HT2A receptor Gαq BRET (G protein trimer dissociation); type: cell-based; settings: 5-HT2A receptor, G protein pathway; read-out: Gαq BRET EC50;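 further: cells transfected with 5-HT2A receptor, Gαq-Rluc, Gβ3 and Gγ9-GFP, BRET read with coelenterazine 400a (5 µM) across a compound dilution series in duplicate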
Sequence (P28223 whole entry): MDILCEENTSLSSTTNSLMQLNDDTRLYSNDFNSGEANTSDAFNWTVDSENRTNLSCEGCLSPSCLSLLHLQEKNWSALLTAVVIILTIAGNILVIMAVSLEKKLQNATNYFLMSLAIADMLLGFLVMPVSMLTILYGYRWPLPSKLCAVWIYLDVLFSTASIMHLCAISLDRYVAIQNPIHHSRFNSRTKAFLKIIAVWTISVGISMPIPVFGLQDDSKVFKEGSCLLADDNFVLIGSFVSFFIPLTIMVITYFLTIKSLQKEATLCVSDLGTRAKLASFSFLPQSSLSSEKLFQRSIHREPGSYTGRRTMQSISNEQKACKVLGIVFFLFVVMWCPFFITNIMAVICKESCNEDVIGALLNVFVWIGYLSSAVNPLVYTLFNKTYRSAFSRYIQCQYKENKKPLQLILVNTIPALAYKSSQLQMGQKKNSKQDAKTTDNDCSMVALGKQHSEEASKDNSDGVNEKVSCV
For each entry below, report its pEC50 value.
FYI, pEC50 means -log10 of a concentration in mol per litre.

Quick one: pEC50 for O=C1CCc2ccc(OCCCCN3CCN4c5cccc6scc(c56)CC4C3)cc2N1 (stereo not drawn) ?
5.25

Quick one: pEC50 for CCCN1CCN2c3cccc4scc(c34)CC2C1 (stereo not drawn) ?
8.62

Quick one: pEC50 for O=C(N[C@H]1CC[C@H](CCN2CCN3c4cccc5scc(c45)CC3C2)CC1)N1CCCCC1 (stereo partly drawn) ?
6.52

Quick one: pEC50 for O=C(NCCN1CCN2c3cccc4scc(c34)CC2C1)C1CCOCC1 (stereo not drawn) ?
6.32

Quick one: pEC50 for O=C1NCCN1c1cccc(CN2CCN3c4cccc5scc(c45)CC3C2)c1 (stereo not drawn) ?
6.13

Quick one: pEC50 for O=C1c2ccccc2CN1CCCCN1CCN2c3cccc4scc(c34)CC2C1 (stereo not drawn) ?
6.01

Quick one: pEC50 for O=C(N[C@H]1CC[C@H](CCN2CCN3c4cccc5scc(c45)CC3C2)CC1)N1CCCC1 (stereo partly drawn) ?
6.74

Quick one: pEC50 for COc1cc2c(cc1OC)C(=O)N(CCCCN1CCN3c4cccc5scc(c45)CC3C1)C2 (stereo not drawn) ?
6.61

Quick one: pEC50 for O=C1[C@H]2CCCC[C@H]2C(=O)N1CCCCN1CCN2c3cccc4scc(c34)CC2C1 (stereo partly drawn) ?
6.47

Quick one: pEC50 for c1cc2c3c(csc3c1)CC1CN(CCCCOc3ccc4scnc4c3)CCN21 (stereo not drawn) ?
5.36

Quick one: pEC50 for O=c1ccc2ccc(OCCCCN3CCN4c5cccc6scc(c56)CC4C3)cc2[nH]1 (stereo not drawn) ?
5.84

Quick one: pEC50 for O=c1ccc2ccc(OCCCN3CCN4c5cccc6scc(c56)CC4C3)cc2[nH]1 (stereo not drawn) ?
6.55

* * *

For each entry below, report its Emax value.
target: dopamine D2 receptors (Homo sapiens (Human)); assay: Dopamine D2 receptor β-arrestin2 BRET (recruitment); type: cell-based; settings: read-out: β-arrestin2 BRET (Emax %);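 further: cells co-expressing Rluc-fused D2 receptor, GRK2 and GFP2-fused β-arrestin2, BRET read with coelenterazine 400a after adding drug over a concentration series, in duplicate wells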
Sequence (P14416 whole entry, the tested form may be a part): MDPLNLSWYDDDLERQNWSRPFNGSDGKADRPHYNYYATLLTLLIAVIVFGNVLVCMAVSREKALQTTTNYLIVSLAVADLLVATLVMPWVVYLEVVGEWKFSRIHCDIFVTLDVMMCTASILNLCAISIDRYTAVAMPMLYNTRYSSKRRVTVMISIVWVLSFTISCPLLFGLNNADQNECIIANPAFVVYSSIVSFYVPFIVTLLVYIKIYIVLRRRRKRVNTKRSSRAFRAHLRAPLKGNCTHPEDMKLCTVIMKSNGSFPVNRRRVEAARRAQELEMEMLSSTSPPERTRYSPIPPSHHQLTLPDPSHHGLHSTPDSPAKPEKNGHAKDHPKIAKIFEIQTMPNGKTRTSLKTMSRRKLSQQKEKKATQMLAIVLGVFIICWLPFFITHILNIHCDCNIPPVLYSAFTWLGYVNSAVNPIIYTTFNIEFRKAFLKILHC
Please state the number and follow it with the unit.

Quick one: Emax for Fc1ccc(-c2cncc(CN3CCN4c5cccc6scc(c56)CC4C3)c2)cc1 (stereo not shown) ?
14.1%

Quick one: Emax for O=C1CCc2ccc(OCCCCN3CCN4c5cccc6scc(c56)CC4C3)cc2N1 (stereo not shown) ?
35.6%

Quick one: Emax for Fc1ccc(CCN2CCN3c4cccc5scc(c45)CC3C2)cc1 (stereo not shown) ?
27.2%

Quick one: Emax for CCCN1CCN2c3cccc4scc(c34)CC2C1 (stereo not shown) ?
27.6%

* * *

target: 5-HT1A receptor (Homo sapiens (Human)); experiment: 5-HT1A receptor Gαi1 BRET (G protein trimer dissociation); format: cell-based; settings: 5-HT1A receptor, G protein pathway;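 further: cells transiently co-expressing 5-HT1A receptor, luciferase-tagged Gαi1, Gβ3 and GFP-tagged Gγ9, seeded in 96-well plates for BRET measurement of G protein signaling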
Sequence (P08908 whole entry): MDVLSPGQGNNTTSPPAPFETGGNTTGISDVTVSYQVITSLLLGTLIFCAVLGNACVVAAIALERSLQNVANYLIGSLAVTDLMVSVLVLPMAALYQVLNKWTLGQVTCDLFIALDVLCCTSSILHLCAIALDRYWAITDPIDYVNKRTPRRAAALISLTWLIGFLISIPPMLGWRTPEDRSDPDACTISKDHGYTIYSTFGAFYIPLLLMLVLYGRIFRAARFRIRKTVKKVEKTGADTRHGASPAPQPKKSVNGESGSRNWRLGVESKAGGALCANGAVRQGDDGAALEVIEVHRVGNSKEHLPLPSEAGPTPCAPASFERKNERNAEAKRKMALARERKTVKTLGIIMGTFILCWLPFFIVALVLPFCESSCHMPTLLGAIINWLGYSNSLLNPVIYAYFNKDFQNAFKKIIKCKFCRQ
recorded endpoint: Emax

Quick one: Emax for O=c1ccc2ccc(OCCCCN3CCN4c5cccc6scc(c56)CC4C3)cc2[nH]1 (stereo not drawn) ?
81%

Quick one: Emax for O=C1CCc2ccc(OCCCN3CCN4c5cccc6scc(c56)CC4C3)cc2N1 (stereo not drawn) ?
82%

Quick one: Emax for O=C1c2ccccc2CCCN1CCCCN1CCN2c3cccc4scc(c34)CC2C1 (stereo not drawn) ?
82%
